Target: GST-tagged K-Ras mutant / His-tagged hSOS1 (Homo sapiens)
Assay: HTRF assay, K-Ras mutant / SOS1 interaction
Format: binding
Conditions: compound nos. 401-703; read-out: IC50 against mutant Kras
Could you please report measured IC50 for the items listed next?

# input Hello, I am looking for reported IC50 with GST-tagged K-Ras mutant / His-tagged hSOS1 (Homo sapiens) for Nc1nc2c(-c3c(Cl)cc4c(N5CCCN(S(=O)(=O)C6CC6)CC5)nc(OC[C@@]56CCCN5C[C@H](F)C6)nc4c3F)ccc(F)c2s1 . Could you help?
# output < 0.5 µM

# input Another: Nc1nc2c(-c3cc4c(=O)n(CCN5CCCC5)nc(N5C[C@H]6CC[C@@H](C5)N6)c4cc3Cl)ccc(F)c2s1
# output > 0.5 µM

# input Again, but for Nc1nc2c(-c3c(Cl)cc4c(N5CC6CC5CCN6)nc(OC[C@@]56CCCN5C[C@H](F)C6)nc4c3F)ccc(F)c2s1 (stereo partly drawn)
# output < 0.5 µM

---

Target: GST-tagged K-Ras mutant / His-tagged hSOS1 (Homo sapiens, UniProt P01116)
Sequence (P01116 whole entry G12D, form open): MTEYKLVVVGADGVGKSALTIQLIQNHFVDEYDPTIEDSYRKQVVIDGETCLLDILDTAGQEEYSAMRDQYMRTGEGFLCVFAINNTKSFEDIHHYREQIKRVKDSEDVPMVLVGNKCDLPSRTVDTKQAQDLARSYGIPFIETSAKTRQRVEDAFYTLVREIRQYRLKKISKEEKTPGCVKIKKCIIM
Assay: HTRF assay, K-Ras mutant / SOS1 interaction
Format: binding
Conditions: compound nos. 401-703; read-out: IC50 against mutant Kras
pIC50: −log10 of the molar value.
Readout: pIC50

# input Find the recorded pIC50 belonging to Fc1ccc(-c2c(Cl)cc3c(N4CC5CCC(C4)N5)nc(OC[C@@]45CCCN4C[C@H](F)C5)nc3c2F)c2c1CCCC2 [Compound 689] and report it.
# output < 6.30

# input Okay, and Oc1cc(-c2ccc3c(N4CC5CCC(C4)N5)nc(OC[C@]45CCCN4C[C@@H](F)C5)nc3c2OCC(F)(F)F)c2ccccc2c1 [Compound 608] ?
# output < 6.30

# input Note, next up: N#CC1COCCN(c2nc(OCC34CCCN3C[C@H](F)C4)nc3c(F)c(-c4ccc(F)c5sc(N)nc45)c(Cl)cc23)C1 (stereo partly shown) [Compound 513]
# output > 6.30

# input Ok, now Nc1nc2c(-c3c(Cl)cc4c(N5CC6CCC(C5)N6)nc(OCC56CCCN5CCC6)nc4c3F)cc(Cl)cc2s1 [Compound 615]
# output > 6.30

# input Please do the same for Nc1nc2c(-c3c(Cl)cc4c(N5CCCCCC5)nc(OCC5(CN6CCCC6)CC5)nc4c3F)ccc(F)c2s1 [Compound 677] as well.
# output > 6.30

# input Do the same for Nc1nc2c(-c3c(Cl)cc4c(N5CC6CCC(C5)N6)nc(OCCCN5CCCC5)nc4c3F)ccc(F)c2s1 [Compound 457] please
# output < 6.30

# input Also need N#CC1C2CCC1CN(c1nc(OC[C@@]34CCCN3C[C@H](F)C4)nc3c(F)c(-c4ccc(F)c5sc(N)nc45)c(Cl)cc13)C2 (stereo partly shown) [Compound 403] , thanks.
# output > 6.30

---

Molecular target: wildtype Kras / hSOS1 (Homo sapiens, UniProt P01116)
Construct: made in house; host or cells: E. coli BL21 (DE3)
Sequence (P01116 1-188 isoform P01116-2): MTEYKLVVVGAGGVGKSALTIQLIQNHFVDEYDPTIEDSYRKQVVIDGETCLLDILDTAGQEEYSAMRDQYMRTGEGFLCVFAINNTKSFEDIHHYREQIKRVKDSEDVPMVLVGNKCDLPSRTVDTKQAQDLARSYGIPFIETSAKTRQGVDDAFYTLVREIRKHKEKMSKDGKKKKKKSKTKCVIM
Test: HTRF assay, wildtype Kras / SOS1 interaction
Assay type: binding
Conditions: compound nos. 401-703; read-out: IC50 against wildtype Kras
Readout: IC50

# input Entry CN1CCC[C@H]1COc1nc(N2CCCC(C3CC3)CC2)c2cc(Cl)c(-c3cccc4sc(N)nc34)c(F)c2n1 (stereo partly shown) [Compound 453] has what IC50?
# output < 0.5 µM

# input Next molecule: Nc1nc2c(-c3c(Cl)cc4c(N5C6CCNCC5CC6)nc(OC[C@@]56CCCN5C[C@H](F)C6)nc4c3F)ccc(F)c2s1 (stereo partly shown) [Compound 568]
# output > 0.5 µM

# input Entry Oc1ccc2c(c1)N(c1ccc3c(N4CCCCCC4)nc(OCC45CCCN4CCC5)nc3c1F)CCC2 [Compound 584] please
# output > 0.5 µM

# input Okay, and N#Cc1c(N)sc2c(F)ccc(-c3c(Cl)cc4c(N5CCC6CCC(C5)N6)nc(OC[C@@]56CCCN5C[C@H](F)C6)nc4c3F)c12 (stereo partly shown) [Compound 504] ?
# output > 0.5 µM

---

Exercise: state measured pIC50 for each of the molecules provided.
Biological target: wildtype Kras / hSOS1 (Homo sapiens, UniProt P01116)
Construct: made in house; host or cells: E. coli BL21 (DE3)
Assay: HTRF assay, wildtype Kras / SOS1 interaction
Type: binding
Conditions: compound nos. 401-703; read-out: IC50 against wildtype Kras
pIC50: −log10 of the molar value.

# input Query (molecule): CN1CCC[C@H]1COc1nc(N2CCCC(C(N)=O)CC2)c2cc(Cl)c(-c3cccc4sc(N)nc34)c(F)c2n1 (stereo partly drawn) [Compound 581] ; field requested: pIC50
# output < 6.30

# input Could you do the same for Oc1cc(-c2ccc3c(N4CC5CCC(C4)N5)nc(OC[C@]45CCCN4C[C@@H](F)C5)nc3c2OCC(F)(F)F)c2ccccc2c1 , please?
# output < 6.30

# input Another molecule to check: COc1nc2c(N3C[C@H]4CC[C@@H](C3)N4)nc(OCC34CCCN3CCC4)nc2cc1-c1cc(O)cc2ccccc12
# output < 6.30

---

Molecular target: wildtype Kras / hSOS1 (Homo sapiens)
Construct: made in house; host or cells: E. coli BL21 (DE3)
Experiment: HTRF assay, wildtype Kras / SOS1 interaction
Type: binding
Conditions: compound nos. 301-306; read-out: IC50 against wildtype Kras
pIC50: −log10 of the molar value.
Readout: pIC50

# input // returns reported pIC50 for input Nc1nc2c(-c3c(Cl)cc4c(N5C6CCCC5CNC6)nc(OC[C@@]56CCCN5C[C@H](F)C6)nc4c3F)ccc(F)c2s1 [Compound 302]
# output > 5.82

# input And then Nc1nc2c(-c3c(Cl)cc4c(N5[C@@H]6CC[C@H]5CC(F)C6)nc(OC[C@@]56CCCN5C[C@H](F)C6)nc4c3F)ccc(F)c2s1 (stereo partly drawn) [Compound 304] , what is it?
# output > 5.82

# input Same question for Nc1nc2c(-c3c(Cl)cc4c(N5[C@@H]6CC[C@H]5CC(F)(F)C6)nc(OC[C@@]56CCCN5C[C@H](F)C6)nc4c3F)ccc(F)c2s1 [Compound 303] please.
# output > 5.82

---

Molecular target: GST-tagged K-Ras mutant / His-tagged hSOS1 (Homo sapiens)
Experiment: HTRF assay, K-Ras mutant / SOS1 interaction
Format: binding
Details: compound nos. 401-703; read-out: IC50 against mutant Kras
Readout: IC50

# input State the recorded IC50 for this entry: N#Cc1ccc2ccccc2c1-c1c(Cl)cc2c(N3CC4CCC(C3)N4)nc(OC[C@@]34CCCN3C[C@H](F)C4)nc2c1F [Compound 558]
# output > 500 nM

# input Next molecule: Nc1nc2c(-c3c(Cl)cc4c(N5CC6CCC(C5)N6)nc(OC[C@@]56CCCN5C[C@H](F)C6)nc4c3F)cccc2o1 [Compound 588]
# output < 500 nM

# input And the next one, N#Cc1c(N)sc2c(F)ccc(-c3c(Cl)cc4c(N5CC6CCC(C5)N6CC5CC5)nc(OC[C@@]56CCCN5C[C@H](F)C6)nc4c3F)c12 [Compound 500] ?
# output < 500 nM

---

Target: GST-tagged K-Ras mutant / His-tagged hSOS1 (Homo sapiens, UniProt P01116)
Assay: HTRF assay, K-Ras mutant / SOS1 interaction
Type: binding
Details: compound nos. 102-196, general methodology of example 5; read-out: IC50 against mutant Kras
pIC50: −log10 of the molar value.
Readout: pIC50

# input What pIC50 value was documented for this compound, Nc1nc2c(-c3c(Cl)cc4c(N5CCCCC(F)C5)nc(OC[C@@]56CCCN5C[C@H](F)C6)nc4c3F)ccc(F)c2s1 (stereo partly shown) ?
# output > 6.30

# input Then this compound: Nc1nc2c(-c3c(Cl)cc4c(N5CCNCC(F)C5)nc(OC[C@@]56CCCN5C[C@H](F)C6)nc4c3F)ccc(F)c2s1 (stereo partly shown)
# output > 6.30

# input How about this compound: Nc1nc2c(-c3c(Cl)cc4c(N5CCOCC(N)C5)nc(OCC56CCCN5CCC6)nc4c3F)ccc(F)c2s1 (stereo not shown)
# output > 6.30

# input Repeat with Nc1nc2c(-c3c(Cl)cc4c(N5CCNCC(O)C5)nc(OCC56CCCN5CCC6)nc4c3F)ccc(F)c2s1 (stereo not shown)
# output > 6.30

# input Could you do the same for CN1CCC[C@H]1COc1nc(N2CC3CNC(C3)C2)c2cc(Cl)c(-c3cccc4sc(N)nc34)c(F)c2n1 (stereo partly shown) , please?
# output < 6.30

# input Try this compound too: Cc1ccnc(C(C)C)c1-n1c(=O)nc(N2CCNCC(F)(F)C2)c2cc(F)c(-c3c(O)cccc3F)nc21
# output < 6.30

# input Another compound: CN1CCC[C@H]1COc1nc(N2CCNCC3(CC3)C2)c2cc(Cl)c(-c3cccc4sc(N)nc34)c(F)c2n1
# output < 6.30

Sourced from patent US20240254129A1
